- target-or-system: UniProt Q01726
- Sequence (Q01726 whole entry, looked up): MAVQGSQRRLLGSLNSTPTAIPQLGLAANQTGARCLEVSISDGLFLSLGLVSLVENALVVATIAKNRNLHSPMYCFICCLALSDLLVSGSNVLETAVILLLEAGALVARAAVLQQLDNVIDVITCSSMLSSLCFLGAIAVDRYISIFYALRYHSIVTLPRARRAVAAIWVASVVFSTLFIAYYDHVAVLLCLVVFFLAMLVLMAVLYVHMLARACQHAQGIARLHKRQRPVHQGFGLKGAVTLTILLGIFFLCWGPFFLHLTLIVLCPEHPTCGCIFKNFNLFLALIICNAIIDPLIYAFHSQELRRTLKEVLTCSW
- experiment-summary: Displacement of [125I]-[Nle4,d-Phe7]-alpha-MSH from human MC1R expressed in HEK293 cells at 10 uM after 40 mins by gamma counting analysis relative to control
- Assay type: cell-based
Square brackets hold non-standard residues; d marks the D form. Peptide text beside a SMILES is read from it. dPhe(4-CF3) = N[C@H](Cc1ccc(C(F)(F)F)cc1)C(=O)O; dPhe(4-Cl) = N[C@H](Cc1ccc(Cl)cc1)C(=O)O; d2Nal = N[C@H](Cc1ccc2ccccc2c1)C(=O)O; Nle = CCCC[C@H](N)C(=O)O
measured-quantity: %max (%)

1 = CCCC[C@H](NC(=O)[C@@H](Cc1ccccc1)NC(=O)[C@H](Cc1cnc[nH]1)NC(C)=O)C(=O)N[C@@H](Cc1c[nH]c2ccccc12)C(N)=O (Ac-H[dF][Nle]W-NH2)
2 = CCCC[C@H](NC(=O)[C@@H](Cc1ccc2ccccc2c1)NC(=O)[C@H](Cc1cnc[nH]1)NC(C)=O)C(=O)N[C@@H](Cc1c[nH]c2ccccc12)C(N)=O (Ac-H[d2Nal][Nle]W-NH2)
3 = CCCC[C@H](NC(=O)[C@@H](Cc1ccccc1)NC(=O)[C@@H]1CCCN1C(C)=O)C(=O)N[C@@H](Cc1c[nH]c2ccccc12)C(N)=O (Ac-P[dF][Nle]W-NH2)
List the 3 entries from lowest %max to highest %max value. Reply format: the labels, ordered as requested.
3, 1, 2

P = CCCC[C@H](NC(=O)[C@@H](Cc1ccc(Cl)cc1)NC(=O)[C@H](Cc1cnc[nH]1)NC(C)=O)C(=O)N[C@@H](Cc1c[nH]c2ccccc12)C(N)=O (Ac-H[dPhe(4-Cl)][Nle]W-NH2)
Q = CCCC[C@H](NC(=O)[C@@H](Cc1ccc(C(F)(F)F)cc1)NC(=O)[C@@H]1CCCN1C(C)=O)C(=O)N[C@@H](Cc1c[nH]c2ccccc12)C(N)=O (Ac-P[dPhe(4-CF3)][Nle]W-NH2)
R = CCCC[C@H](NC(=O)[C@@H](Cc1ccc(C(F)(F)F)cc1)NC(=O)[C@H](Cc1cnc[nH]1)NC(C)=O)C(=O)N[C@@H](Cc1c[nH]c2ccccc12)C(N)=O (Ac-H[dPhe(4-CF3)][Nle]W-NH2)
Order the entries by their reported %max, beginning at the minimum. Reply format: the labels, ordered as requested.
Q, R, P
(Q: 0%, R: 49%, P: 81%)
